- Method: in vivo
- Test parameters: mouse, po

>  <Smiles input>
O=C(O)c1ccccc1Nc1ccn2c(=O)c3ccccc3nc2n1

>  <Value unit>
mg/kg

>  <LD50 at 168 h>
3400

$$$$

---

- Method: Acute toxicity in rabbits (LD50)
- Test parameters: rabbit, in vivo, ip, rabbits, intra-abdominal, Van der Waerden

>  <Smiles input>
O=C(O)c1ccccc1Nc1ccn2c(=O)c3ccccc3nc2n1

>  <LD50 at 168 h, mg/kg>
1750

$$$$

---

- Method: in vivo
- Test parameters: rat, ip

>  <Smiles input>
O=C(O)c1ccccc1Nc1ccn2c(=O)c3ccccc3nc2n1

>  <Value unit>
mg/kg

>  <LD50 at 168 h>
980

$$$$
